biological target: full-length beta-Catenin (Uniprot ID P35222) (Homo sapiens (Human)) (UniProt P35222); test: fluorescence polarization competition; full-length beta-catenin, competitor probe 5FAM-TCF4(10-53)
pIC50: −log10 of the molar value. Starred links: 1 amine or outer side, 2 acyl side, 3 side chain; linkers in the order of their positions; H or OH if unused. Positions of bridges follow the written chain, without caps; N, C: chain ends. Non-standard residues stand in square brackets, D forms with d. Primed or numbered codes have the meaning given here. *: point of attachment. PyrS2″ = (S)-3-amino-1-((pent-4-en-1-yloxy)carbonyl)pyrrolidine-3-carboxylic acid (stapling residue), C=CCCCOC(=O)N1CC[C@@](N[*:1])(C(=O)[*:2])C1; B5(32) = 2-amino-2-(pent-4-en-1-yl)hept-6-enoic acid (bis-4-pentenylglycine, two alkene side chains), C=CCCCC(CCCC=C)(N[*:1])C(=O)[*:2]; B5(4) = 2,2-bis(4-pentenyl)glycine = 2-amino-2-(pent-4-en-1-yl)hept-6-enoic acid (stitching residue), C=CCCCC(CCCC=C)(N[*:1])C(=O)[*:2]; PyrS2 = (S)-3-amino-1-((pent-4-en-1-yloxy)carbonyl)pyrrolidine-3-carboxylic acid, C=CCCCOC(=O)N1CC[C@@](N[*:1])(C(=O)[*:2])C1; B5(3) = 2,2-bis(4-pentenyl)glycine (stitching residue), C=CCCCC(CCCC=C)(N[*:1])C(=O)[*:2]; Phe(3-COOH) = N[C@@H](Cc1cccc(C(=O)O)c1)C(=O)O; Phe(2-CF3) = N[C@@H](Cc1ccccc1C(F)(F)F)C(=O)O; Phe(3,4-Me2) = Cc1ccc(C[C@H](N)C(=O)O)cc1C; Bta = N[C@@H](Cc1csc2ccccc12)C(=O)O; αAllylPro = C=CC[C@@]1(C(=O)O)CCCN1; tBuAla = CC(C)(C)C[C@H](N)C(=O)O; 3Thi = N[C@@H](Cc1ccsc1)C(=O)O; BrAc = O=C(CBr)*
Observed property: pIC50

Recorded results for 3 binders are shown here.
>  <Binder>
Ac-[αAllylPro]D[tBuAla][B5(3)]D[Phe(3-COOH)]AAFL[PyrS2″][3Thi][Bta]NAAAAAAAAA-NH2 (staple 1-4, 4-11) [I-2270]

>  <Result value>
7.40

$$$$
>  <Binder>
BrAc-[αAllylPro]D[tBuAla][B5(32)]DDAAFQ[PyrS2][3Thi][Bta]H-NH2 (staple 1-4, 4-11) [I-2285]

>  <Result value>
7.03

$$$$
>  <Binder>
Ac-[αAllylPro]D[tBuAla][B5(4)]D[Phe(3-COOH)]AAFL[PyrS2][3Thi][Phe(3,4-Me2)]Q-NH2 (staple 1-4, 4-11) [I-2291]

>  <Result value>
8.30

$$$$

A: Ac-[αAllylPro]D[tBuAla][B5(4)]D[Phe(3-COOH)]AAFL[PyrS2][Phe(2-CF3)][Phe(3,4-Me2)]S-NH2 (staple 1-4, 4-11) [I-2293]
B: Ac-[αAllylPro]D[tBuAla][B5(3)]D[Phe(3-COOH)]AAFS[PyrS2″][3Thi][Bta]S-NH2 (staple 1-4, 4-11; also: earlier eluting HPLC isomer) [I-984]
Looking at A and B , which one comes out lower in pIC50 terms? API: response body contains the label of the selected item.
B
